# System: Fibroblast
# assay-method-text: Incucyte cell viability with human fibroblast; further: unitless GR value; below 1 slowed growth and below 0 cell loss
# Assay type: toxicity, cell-based
# measurement-context: 24 h, 10 µM, compound concentration 10 uM, replicate number 1
Provide the recorded Growth Rate for the entries that follow.
Numbers only.

Record excerpt, results attached:
{"compound": "Cn1cc(NC(=O)c2cc(F)cc(F)c2)c(C(=O)NC2CCNCC2)n1", "quantitative-result": 0.67}
{"compound": "Cc1ncsc1-c1ccc([C@H](C)NC(=O)[C@@H]2C[C@@H](O)CN2C(=O)[C@@H](NC(=O)CNC(=O)c2ccc(F)c(-c3ccc(N4C[C@@H](C)N(C)[C@@H](C)C4)c(NC(=O)c4c[nH]c(=O)cc4C(F)(F)F)c3)c2)C(C)(C)C)cc1", "quantitative-result": -0.11}
{"compound": "Cn1c(=O)c2c(nc(N3CCNCC3)n2Cc2nnc(-c3ccc(Cl)c(Cl)c3)o2)n(C)c1=O", "quantitative-result": 1}
{"compound": "COc1cc2c(NC3CCN(CC4CCCCC4)CC3)nc(N3CCCN(C(C)C)CC3)nc2cc1OCCCN1CCCCC1", "quantitative-result": -0.44}
{"compound": "CCCOc1cc(OCCCCN(C)C)cc(Oc2cc3c(cc2NS(=O)(=O)c2ccc(OC)c(OC)c2)n(C)c(=O)n3C)c1.O=C(O)C(F)(F)F", "quantitative-result": 1}

I need Growth Rate for every entry listed below, if you could help.
1. C[C@H](NC(=O)c1cn(C2(C#N)CC2)cn1)C(=O)Nc1nc(-c2cccc(-c3ccn(C)n3)c2)cs1
2. C=CC(=O)Nc1cccc(-c2c[nH]cc2CN(C)CCN)c1
3. Cc1cc(C)c(CNC(=O)c2cc(Cl)c3c(c2C)O[C@@](C)([C@H]2CC[C@H](N(C)C)CC2)O3)c(=O)[nH]1 [VALEMETOSTAT]
4. COc1cc(-c2cn(C)c(=O)c3cnccc23)cc(OC)c1CN(C)CC(=O)NCCOCCOCCNc1cccc2c1C(=O)N(C1CCC(=O)NC1=O)C2=O (stereo unspecified)
5. C[C@H](Nc1cc(Cl)nc2c1cnn2[C@@H]1O[C@H](COP(=O)(O)CP(=O)(O)O)[C@@H](O)[C@H]1O)c1ccccc1F
6. COC[C@@H]1CCCN1S(=O)(=O)c1ccc2c(c1)C(=O)C(=O)N2
7. N#C[C@@H]1CCCN1C(=O)[C@@H]1CCCN1C(=O)CCCc1ccccc1
8. CCn1c(=O)c(C)cn(Cc2nnc(-c3ccc(F)c(OC)c3F)s2)c1=O

1: 0.43; 2: 0.37; 3: 1; 4: 0.26; 5: 0.88; 6: 0.45; 7: 1; 8: 0.35

* * *

Provide the recorded Growth Rate for the entries that follow.
# System: U2OS
# assay-method-text: Incucyte cell viability with U2OS; further: unitless GR value; below 1 slowed growth and below 0 cell loss
# Format: toxicity, cell-based
# measurement-context: human, 24 h, 10 µM, compound concentration 10 uM, replicate number 1
Peptide text beside a SMILES is read from it.
Give bare numbers.

Record excerpt, results attached:
{"compound": "COc1cc2c(NC3CCN(C)CC3)cc(-c3ccc(C)o3)nc2cc1OCCCN1CCCC1", "Growth Rate": -0.74}
{"compound": "CNC(=O)N1CCc2c(c(N3CCCc4cc(-c5cnn(C)c5)c(C(F)F)cc43)nn2C2CCOCC2)C1", "Growth Rate": 0.76}
{"compound": "CC(=O)N1CCN([C@H]2CCC[C@@H](NC(=O)c3cc4c(F)ccc(C)c4[nH]3)C2)CC1", "Growth Rate": 0.87}
{"compound": "Cc1ccc(C(=O)Nc2ccc(S(=O)(=O)[O-])c3cc(S(=O)(=O)[O-])cc(S(=O)(=O)[O-])c23)cc1NC(=O)c1cccc(NC(=O)Nc2cccc(C(=O)Nc3cc(C(=O)Nc4ccc(S(=O)(=O)[O-])c5cc(S(=O)(=O)[O-])cc(S(=O)(=O)[O-])c45)ccc3C)c2)c1.[Na+].[Na+].[Na+].[Na+].[Na+].[Na+] [SURAMIN HEXASODIUM]", "Growth Rate": 1}
{"compound": "COc1cc(C(C)C)c2c(c1)S(=O)(=O)N(COc1cc(=O)n3cccc(OCCN4CCCCC4)c3n1)C2=O", "Growth Rate": 0.9}

I need Growth Rate for every entry listed below, if you could help.
1. Oc1ccc(-c2c(-c3ccccc3)nn3c(C(F)(F)F)cc(C(F)(F)F)nc23)cc1
2. O=c1[nH]ccc2cc(F)c(NS(=O)(=O)c3ccc(N4CC[C@@H](O)C4)s3)cc12
3. O=C(NCC(=O)N1CCCCC1)Nc1ccc2nnsc2c1
4. CCCn1/c(=N/C(=O)c2cccc(C(N)=O)c2)[nH]c2ccccc21
5. Nc1ccccc1NC(=O)c1ccc(CNC(=O)OCc2cccnc2)cc1
6. CC(=O)N[C@@H](CC(C)C)C(=O)N[C@@H](CCC(=O)O)C(=O)N[C@H](C(=O)N[C@H](C=O)CC(=O)O)C(C)C (Ac-LEVD-aldehyde)
7. FC(F)(F)Oc1ccc(Oc2ccnc(N3CCC(NC(=S)Nc4cccnc4)CC3)c2Cl)c(Cl)c1
8. CCCCCCCCCCCCCCCCNNC(=O)c1cccs1

1
1
0.93
1
-0.2
0.75
0.35
0.83

I need Growth Rate for every entry listed below, if you could help.
1. CC(C)(O)c1ccc(N2Cc3c(ccnc3-c3ccc(F)cc3OCC(F)(F)F)C2=O)cc1
2. CCCN1CCN(c2ccc(C(=O)NC3(C(=O)NCC#N)CCCCC3)cc2)CC1
3. CC(C)N(CCCNC(=O)Nc1ccc(C(C)(C)C)cc1)C[C@H]1O[C@@H](n2ccc3c(N)ncnc32)[C@H](O)[C@@H]1O

1: 0.05; 2: 1; 3: 1

* * *

Provide the recorded Growth Rate for the entries that follow.
# System: HEK-293T
# assay-method-text: Incucyte cell viability with HEK293T; further: unitless GR value; below 1 slowed growth and below 0 cell loss
# Assay type: toxicity, cell-based
# measurement-context: human, 24 h, 10 µM, compound concentration 10 uM, replicate number 1
One number for each entry.

{"compound": "Cc1ncsc1-c1ccc(CNC(=O)[C@@H]2C[C@@H](O)CN2C(=O)[C@@H](NC(=O)COCCOCCOc2ccc(-c3ccc4ncnc(Nc5ccc(OCc6cccc(F)c6)c(Cl)c5)c4c3)cc2)C(C)(C)C)cc1", "target-under-test": "HEK-293T", "Growth Rate": 1}

I need Growth Rate for every entry listed below, if you could help.
1. C[C@H](NC(=O)c1cn(C2(C#N)CC2)cn1)C(=O)Nc1nc(-c2cccc(-c3ccn(C)n3)c2)cs1
2. OC1CN=C2c3ccn([C@@H]4O[C@H]([C@H](O)c5ccc(Cl)cc5)[C@@H](O)[C@H]4O)c3N=CN21 (stereo partly drawn)
3. Cc1nc(-c2cnc(NC(C)C)n(C)c2=O)ccc1Oc1ccnc(-c2cnn(C)c2)c1
4. Br.N#Cc1ccc(-c2csc(NN=C3CCCC3)n2)cc1
5. Cc1cc2cc(NS(=O)(=O)c3ccc(C#N)cc3)ccc2n(C)c1=O
6. CCn1c(=O)c(C)cn(Cc2nnc(-c3ccc(F)c(OC)c3F)s2)c1=O

1. 0.9
2. 1
3. 0.39
4. -0.06
5. 0.88
6. 0.83

# input compound: `CC(C)(C)OC(=O)Nc1ccc(CNc2nccc(Nc3cc(C(=O)OC(C)(C)C)[nH]n3)n2)cc1` ; wanted: its Growth Rate
-0.38

* * *

# System: HEK-293T
# assay-method-text: Incucyte cell viability with HEK293T; further: unitless GR value; below 1 slowed growth and below 0 cell loss
# Assay type: toxicity, cell-based
# measurement-context: human, 24 h, 10 µM, compound concentration 10 uM, replicate number 2
Square brackets hold non-standard residues; d marks the D form. Peptide text beside a SMILES is read from it. * marks the point of attachment. Benzoyl(4-tBu) = CC(C)(C)c1ccc(C(=O)*)cc1; Lys(Et2) = CCN(CC)CCCC[C@H](N)C(=O)O; Cbz = O=C(OCc1ccccc1)*
Provide the recorded Growth Rate for the entries that follow.
Give bare numbers.

Record excerpt, results attached:
{"compound": "Cc1ncsc1-c1ccc([C@H](C)NC(=O)[C@@H]2C[C@@H](O)CN2C(=O)[C@@H](NC(=O)COCCCOCCNC(=O)C[C@@H]2N=C(c3ccc(Cl)cc3)c3c(sc(C)c3C)-n3c(C)nnc32)C(C)(C)C)cc1", "Growth Rate": 0.43}
{"compound": "COc1cc2c(NC3CCN(C4CCCCC4)CC3)nc(N3CCCN(C(C)C)CC3)nc2cc1OCCCN1CCCCC1", "Growth Rate": -0.39}

I need Growth Rate for every entry listed below, if you could help.
1. O=CC1CCCN1C(=O)C1CCCN1C(=O)OCc1ccccc1 (stereo not drawn) (Cbz-Pro-Pro-aldehyde; configuration not given here)
2. Cc1ccc(NC2=CC(=O)c3sc(C)nc3C2=O)cc1
3. COC(=O)[C@@H]1CC2=CC(=O)CC[C@]2(C)[C@@]23O[C@@H]2C[C@@]2(C)[C@@H](CC[C@@]24CCC(=O)O4)[C@H]13 [EPLERENONE]
4. Cc1cc(C(=O)N2CCN(C3CN(C(=O)c4ccc(-c5ccccc5)cc4)C3)CC2)no1
5. O=C(O)/C(S)=C/c1ccc(I)cc1

[0.71, -0.23, 0.95, 0.63, 0.86]

I need Growth Rate for every entry listed below, if you could help.
1. Oc1ccc(-c2c(-c3ccccc3)nn3c(C(F)(F)F)cc(C(F)(F)F)nc23)cc1
2. CC(C)(F)C[C@H](N[C@@H](c1ccc(-c2ccc(S(C)(=O)=O)cc2)cc1)C(F)(F)F)C(=O)NC1(C#N)CC1 [ODANACATIB]
3. CC[C@H](C)[C@H](NC(C)=O)C(=O)N[C@@H](CCC(=O)O)C(=O)N[C@H](C(=O)N[C@H](C=O)CC(=O)O)[C@@H](C)O.O=C(O)C(F)(F)F (Ac-IETD-aldehyde)
4. O=C(NC[C@H](O)CN1CCc2ccccc2C1)c1cc(NC2COC2)ncn1
5. Cc1cc(-c2ccccc2)cc(C(=O)NNS(=O)(=O)c2ccccc2)c1F
6. CNC(=O)c1ccc(-c2cc3cccc(-c4nn(C5CCOCC5)c5c4CN(C(C)=O)CC5)c3cn2)cn1

1: 0.97; 2: 0.87; 3: 1; 4: 0.94; 5: 0.81; 6: 0.57

I need Growth Rate for every entry listed below, if you could help.
1. CCN(CC)CCCC[C@H](NC(=O)[C@H](CC(C)C)NC(=O)[C@H](C)NC(=O)[C@H](Cc1ccccc1)NC(=O)c1ccc(C(C)(C)C)cc1)C(=O)N[C@@H](CO)C(=O)OC ({Benzoyl(4-tBu)}-FAL[Lys(Et2)]S-OMe)
2. O=C1C(=O)N(Cc2ccccc2)c2ccc(S(=O)(=O)N3CCC[C@H]3COc3ccc(C(F)(F)F)cc3)cc21
3. CNC(=O)N1CCc2c(c(N3CCCc4cc(-c5cnn(C)c5)c(C(F)F)cc43)nn2C2CCOCC2)C1
4. O=C(COc1ccc(-c2oc3cc(O)c(C(=O)O)cc3c2C#Cc2cccc(Cl)c2)cc1)NC1CC1
5. O=C(NCCc1cc(C(=O)NO)no1)c1ccc(Cl)c(Cl)c1
6. O=C(CCl)Nc1ccc(S(=O)(=O)c2ccc(NC(=O)CCl)cc2)cc1

0.89
-0.13
0.52
0.84
1
-0.18
